Molecular target: h20S (β2) (Homo sapiens, UniProt Q99436)
Test: h20S β2 subunit inhibition assay
Details: 60 min enzyme-inhibitor pre-incubation; mean ± SD, n=3
Metric: pIC50
pIC50 field: float, defined as -log10 of concentration (mol/L).

Ask | Entry CC(C)C[C@H](NC(=O)[C@H](CC(C)(C)C)NC(=O)[C@H](CCCCNC(=N)N)NC(=O)c1cnccn1)B(O)O [compound 11, Pyz-hArg-nptGly-Leu-B(OH)2] : reported pIC50 = ?
Reply | 6.37

---

Tested on: RAW 264.7 murine macrophages
Assay: cells
Assay type: cell-based
Settings: Mus musculus, RAW264.7, 24 h, read-out: EC50 (cell killing)
Metric: EC50 (nM)
All answers are understood in nM, so give the number only.

Ask | Entry CC(C)C[C@H](NC(=O)[C@H](Cc1ccccc1)NC(=O)c1cnccn1)B(O)O [BZ, bortezomib, reference compound] : reported EC50 = ?
Reply | 160
